Assay: High-throughput drug toxicity screening in the BPDCN cell line Gen2.2 (AID 1224824);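 further: cells exposed to compounds for 48 h before reading; 100% = DMSO and 0% = bortezomib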
Details: Gen2.2 BPDCN cells; at 45.8 µM (top of the series) unless noted
measure: cell viability, % of control (lower = more cytotoxic) (%)
The figure you give is taken to be in %; do not add the unit.

# count of solved cases: 5
molecule	units	data value
N#CC1(c2ccc(NC(=O)c3cccnc3NCc3ccncc3)cc2)CCCC1	%	286
O=C(O)C(O)Cc1ccc(O)c(O)c1 (centres undefined)	%	94.8
CC(C)(C)Cn1c(N)nc2ccc(-c3[nH]c(C(C)(C)C)nc3-c3ccc(F)cc3)nc21	%	207
C[N+]1(C)[C@@H]2CC(OC(=O)[C@H](CO)c3ccccc3)C[C@H]1[C@H]1O[C@@H]12 (some centres undefined)	%	112
COc1ccc(-c2coc3cc(O)ccc3c2=O)cc1	%	191

Given the molecule "CN(C)CCC=C1c2ccccc2COc2ccc(CC(=O)O)cc21" , what is its reported cell viability, % of control (lower = more cytotoxic)?
162

Given the molecule Clc1ccc(CCC(Cn2ccnc2)Sc2c(Cl)cccc2Cl)cc1 (centres undefined) , what is its reported cell viability, % of control (lower = more cytotoxic)?
177

Given the molecule "COc1cc(Nc2ncc(F)c(Nc3ccc4c(n3)NC(=O)C(C)(C)O4)n2)cc(OC)c1OC" , what is its reported cell viability, % of control (lower = more cytotoxic)?
53.6

Given the molecule "COc1cccc(-c2cc(=O)c3ccccc3o2)c1N" , what is its reported cell viability, % of control (lower = more cytotoxic)?
45.3

Given the molecule "CC(C)OC(=O)C(C)(C)Oc1ccc(C(=O)c2ccc(Cl)cc2)cc1" , what is its reported cell viability, % of control (lower = more cytotoxic)?
250

Given the molecule "NC(=O)c1cccc2[nH]c(-c3ccc([C@H]4CCCN4)cc3F)nc12" , what is its reported cell viability, % of control (lower = more cytotoxic)?
104

Given the molecule "OC[C@H]1O[C@@H](n2cnc3c2NC=NC[C@@H]3O)C[C@H]1O" , what is its reported cell viability, % of control (lower = more cytotoxic)?
188

Given the molecule O=C1Nc2ccc(Cl)cc2C(C#CC2CC2)(C(F)(F)F)O1 (centres undefined) , what is its reported cell viability, % of control (lower = more cytotoxic)?
75.6

Given the molecule "Cc1cc(OCCCc2c(C(=O)O)n(Cc3cccnc3)c3c(-c4c(COc5ccc(N6CCN([S+](C)(=O)[O-])CC6)cc5)nn(C)c4C)cccc23)cc(C)c1Cl" , what is its reported cell viability, % of control (lower = more cytotoxic)?
62.9

Given the molecule "O=C1C(Cl)=C(NCCN2CCOCC2)C(=O)c2ncccc21" , what is its reported cell viability, % of control (lower = more cytotoxic)?
2.36

Given the molecule O=C(NOCC(O)CO)c1cc(Br)c(F)c(F)c1Nc1ccc(I)cc1F (centres undefined) , what is its reported cell viability, % of control (lower = more cytotoxic)?
1.76

Given the molecule C=C1C(=O)OC(CCCCCCCC)C1C(=O)O (centres undefined) , what is its reported cell viability, % of control (lower = more cytotoxic)?
15.6
